Each entry below carries its reported EC50.
biological target: Motilin receptor (Homo sapiens); test: Agonist activity at human recombinant motilin receptor expressed in CHO cells by FLIPR assay
Sequence (O43193 whole entry): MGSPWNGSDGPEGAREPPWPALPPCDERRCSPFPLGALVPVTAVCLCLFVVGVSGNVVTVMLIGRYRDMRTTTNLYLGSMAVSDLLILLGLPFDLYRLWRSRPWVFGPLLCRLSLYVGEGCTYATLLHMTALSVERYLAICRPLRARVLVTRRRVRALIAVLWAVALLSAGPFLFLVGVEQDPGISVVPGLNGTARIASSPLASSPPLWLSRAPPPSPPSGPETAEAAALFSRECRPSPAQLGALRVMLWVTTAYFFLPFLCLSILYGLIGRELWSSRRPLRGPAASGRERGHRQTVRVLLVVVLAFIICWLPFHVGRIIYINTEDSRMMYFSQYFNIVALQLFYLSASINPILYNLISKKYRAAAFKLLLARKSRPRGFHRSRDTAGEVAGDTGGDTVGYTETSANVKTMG

CCCCc1ccc(S(=O)(=O)Nc2ccc3c(c2)CCN(C2CCN(C(C)=O)CC2)CC3)cc1
> 2.51 µM
O=C(Nc1ccc(N2CCOCC2)nc1)c1ccc2c(c1)CCNCC2
> 12.6 µM
CCCCc1ccc(S(=O)(=O)Nc2ccc3c(c2)CCN(Cc2ccccc2)CC3)cc1
> 3.16 µM

Next compound, EC50 to be filled in.
Query: What value of measured EC50 is listed for CN(Cc1ccc2c(c1)CCNCC2)C(=O)c1ccc(N2CCOCC2)nc1 ?
Reply: > 12.6 µM
